Tested on: K24384-001-R-PDC complex spheroids, viability;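 also: spheroids exposed to compounds for seven days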
experiment: Anticancer human tumor K24384-001-R-PDC patient-derived pancreatic adenocarcinoma cell line growth inhibition [GQUAD]
condition-set: curve of first compound; second compound 0.1 µM
pIC50: −log10 of the molar value.
measured-endpoint: pIC50

Any idea what pIC50 came out for COc1ncnc(C2CC2)c1-c1ncc2cnn(Cc3ccc(-c4nc(C(F)(F)F)cn4C(C)C)cc3)c2n1 + CN(C)c1ccc(Nc2c3ccc(NC(=O)CCN4CCCC4)cc3nc3cc(NC(=O)CCN4CCCC4)ccc23)cc1 on K24384-001-R-PDC complex spheroids, viability?
< 5.00

Next record, please: CC(=O)O[C@H]1C(=O)[C@@]2(C)[C@H]([C@H](OC(=O)c3ccccc3)[C@]3(O)C[C@H](OC(=O)[C@H](O)[C@@H](NC(=O)c4ccccc4)c4ccccc4)C(C)=C1C3(C)C)[C@]1(OC(C)=O)CO[C@@H]1C[C@@H]2O + Cc1cnc(CNC(=O)c2c(=O)c3ccc(N4CCCN(C)CC4)nc3n3c2sc2ccccc23)cn1
> 7.50

O=c1[nH]cc(F)c(=O)[nH]1 + Cc1[nH]c2ccc(F)cc2c1-c1nc2c3cccnc3c3ncccc3c2[nH]1 , same question.
< 5.00
